# measured_on: HIV-1 envelope glycoprotein gp120 (IIIB) (HIV-1 IIIB (HXB2 clone entry), UniProt P04578)
# test_summary: cell-based or functional assay
Consider the cut-off 0.4 µg/mL. If the recorded IC50 of neutralisation of HIV-1 IIIB in TZM-bl cells, Exp1 is strictly smaller, the label is true; if not, the label is false.

Is IC50 of neutralisation of HIV-1 IIIB in TZM-bl cells, Exp1 of VHH D7 Lys95→Ser (VHH, PDB 2xa3 holds D7 with five framework changes) with the stated CDR3 mutation; Chothia numbering) VHH: AVQLVESGGGLAQAGGSLRLSCTVSGRTSSSHDMGWFRQAPGKEREFVAAISWSGGTTNYADSVKGRFAISKDNAKNAVSLQMNSLKPEDTAVYYCAASWRPLRYSDNPSNSDYNYWGQGTQVTVSS strictly below 0.4 µg/mL?
false

IC50 of neutralisation of HIV-1 IIIB in TZM-bl cells, Exp1 under 0.4 µg/mL? Item: VHH D7 Leu99→Ala (VHH, PDB 2xa3 holds D7 with five framework changes) with the stated CDR3 mutation; Chothia numbering) VHH: AVQLVESGGGLAQAGGSLRLSCTVSGRTSSSHDMGWFRQAPGKEREFVAAISWSGGTTNYADSVKGRFAISKDNAKNAVSLQMNSLKPEDTAVYYCAAKWRPARYSDNPSNSDYNYWGQGTQVTVSS
false
